- System: RPMI-8226 leukemia
- assay_protocol: NCI tumour cell line growth inhibition, 48 h; in the data active = GI50 below about 0.43 µM; inactive = the rest
Outcome codes: active, inactive

| compound | assayed_target | class_assignment |
| --- | --- | --- |
| COc1ccc2[nH]c(O)c(/C=c3/ccc4c(c3)N=C(c3ccc(F)cc3)N=4)c2c1 | RPMI-8226 leukemia | inactive |
| Cc1cc(O)cc(C)c1/C=C/c1cncc(C(=O)OC(C)(C)C)c1 | RPMI-8226 leukemia | inactive |
| CCN1C(=O)N(CC)C2C1NN=c1s/c(=C\c3cccc([N+](=O)[O-])c3)c(=O)n12 (stereo not given) | RPMI-8226 leukemia | active |
| CC(OC(=O)N(N(CCCl)S(C)(=O)=O)S(C)(=O)=O)c1ccc([N+](=O)[O-])cc1 (stereo not given) | RPMI-8226 leukemia | inactive |
| COc1cc(C2C3=C(COC3=O)Nc3cc4c(cc32)OCO4)cc2c1OCO2 (stereo not given) | RPMI-8226 leukemia | active |
| Oc1c(CNCCNCc2cc(Cl)cc(Cc3ccccc3)c2O)cc(Cl)cc1Cc1ccccc1 | RPMI-8226 leukemia | inactive |
| CNCCCn1c2c(c3ccc(F)cc3c1=O)C(=O)c1cc(OC)cnc1-2 | RPMI-8226 leukemia | active |
| FC(F)(F)c1[nH]ncc1-c1nc2ccc3[nH]ncc3c2c2c1CCCC2 | RPMI-8226 leukemia | inactive |
| CC/C=C\C[C@H](O)C/C=C1/C(=O)C=C[C@@H]1C/C=C\CCCC(=O)NC | RPMI-8226 leukemia | inactive |
| O=C(Nc1cccc(-n2cc(-c3ccncc3)c(-c3ccc(O)c(Cl)c3)n2)c1)c1ccc(Cl)c(Cl)c1 | RPMI-8226 leukemia | inactive |
